- tested target: h-GABA-A α2β2γ1 (Homo sapiens (Human), UniProt P47869+Q8N1C3)
- method: Two-electrode voltage clamp electrophysiology in Xenopus oocytes expressing GABAA receptors
- Type: cell-based
- cond: Table 2; % modulation of GABA EC20 = 100*(Fold increase-1), compound at 30-fold Ki
Efficacy (GABA) % listing for selected compounds.

[
  {
    "input smiles": "Cc1nnc2n1-c1cnc(C(F)(F)F)c(Cl)c1C(c1c(F)cccc1F)=N[C@H]2C",
    "metric name": "Efficacy (GABA) %",
    "experimental result": "116%"
  },
  {
    "input smiles": "Cc1nnc2n1-c1cnc(Cl)c(Cl)c1C(c1c(F)cccc1F)=N[C@H]2C",
    "metric name": "Efficacy (GABA) %",
    "experimental result": "55%"
  },
  {
    "input smiles": "Cc1nnc2n1-c1cnc(C(F)(F)F)c(Cl)c1C(c1c(F)cccc1Cl)=N[C@H]2C",
    "metric name": "Efficacy (GABA) %",
    "experimental result": "91%"
  },
  {
    "input smiles": "Cc1nnc2n1-c1cnc(C3CC3)c(Cl)c1C(c1c(F)cccc1F)=N[C@H]2C",
    "metric name": "Efficacy (GABA) %",
    "experimental result": "162%"
  },
  {
    "input smiles": "C[C@@H]1N=C(c2c(F)cccc2F)c2c(cnc(C(F)(F)F)c2Cl)-n2nc(N3CCCC3=O)nc21",
    "metric name": "Efficacy (GABA) %",
    "experimental result": "173%"
  }
]

Consider the record given below.
Returns the measured Efficacy (GABA) % for the input compound. Input: C[C@@H]1N=C(c2c(F)cccc2F)c2c(cnc(C(F)(F)F)c2Cl)-n2nc(C(=O)N3CCS(=O)(=O)CC3)nc21
114%

---

pKi listing for selected molecules.
- tested target: human GABAA α2β2γ1 receptor (Homo sapiens (Human), UniProt P47869+Q8N1C3)
- method: Radioligand binding assay, competition for [3H]RO7239181, γ1-containing GABAA subtypes
- cond: Ki h-GABAA α2β2γ1, Table 2; [3H]RO7239181 displacement
Answer as the number alone; pKi is minus log10 of concentration in mol/L.

Returns the measured pKi for the input molecule. Input: C[C@@H]1N=C(c2c(F)cccc2F)c2c(cnc(C(F)(F)F)c2Cl)-n2nc(C(=O)NCC(C)(C)O)nc21
7.14

Ok, now C[C@@H]1N=C(c2c(F)cccc2F)c2c(cnc(C(F)(F)F)c2Cl)-n2nc(C(=O)N3CC(C)(O)C3)nc21
7.84

---

- tested target: human GABAA α1β3γ2 receptor (Homo sapiens (Human), UniProt P14867+P18507)
- method: Radioligand binding assay, competition for [3H]Flumazenil, γ2-containing GABAA subtypes
- cond: Table 3; reference compounds comparison; read-out: Ki h-GABAA α1β3γ2
metric name: Ki (µM)
Your answer should be a plain number; it is taken to be in µM.

[
  {
    "input smiles": "C[C@@H]1N=C(c2c(F)cccc2F)c2c(cnc(C(F)(F)F)c2Cl)-n2nc(C(=O)N3CC(C)(O)C3)nc21",
    "tested target": "human GABAA α1β3γ2 receptor (Homo sapiens (Human), UniProt P14867+P18507)",
    "experimental result": 4.61
  }
]

Consider the record given below.
Returns the measured Ki for the input compound. Input: Cc1nnc2n1-c1cnc(C(F)(F)F)c(Cl)c1C(c1c(F)cccc1F)=N[C@H]2C
7.27

---

Fold increase h-GABA-A α2β2γ1 oocyte @ 30-fold Ki listing for selected molecules.
- tested target: h-GABA-A α2β2γ1 (Homo sapiens (Human), UniProt P47869+Q8N1C3)
- method: Two-electrode voltage clamp electrophysiology in Xenopus oocytes expressing GABAA receptors
- Format: cell-based
- cond: Table 2; GABA EC20, test compound at approx. 30-fold its Ki α2β2γ1, Xenopus oocytes, -80 mV
Number, no unit, nothing else.

Examples with answers:
[
  {
    "molecule": "Cc1nc2n(n1)-c1cnc(C(F)(F)F)c(Cl)c1C(c1c(F)cccc1F)=N[C@H]2C [Example 5]",
    "experimental result": 1.84
  },
  {
    "molecule": "C[C@@H]1N=C(c2c(F)cccc2F)c2c(cnc(C(F)(F)F)c2Cl)-n2nc(C(=O)N3CC(O)C3)nc21 [Example 8]",
    "experimental result": 2.14
  },
  {
    "molecule": "Cc1nnc2n1-c1cnc(C(F)(F)F)c(Cl)c1C(c1c(F)cccc1Cl)=N[C@H]2C [Example 17]",
    "experimental result": 1.91
  },
  {
    "molecule": "COC1CN(C(=O)c2nc3n(n2)-c2cnc(C(F)(F)F)c(Cl)c2C(c2c(F)cccc2F)=N[C@H]3C)C1 [Example 9]",
    "experimental result": 1.87
  },
  {
    "molecule": "Cc1nnc2n1-c1cnc(C3CC3)c(Cl)c1C(c1c(F)cccc1F)=N[C@H]2C [Example 2]",
    "experimental result": 2.62
  }
]

Returns the measured Fold increase h-GABA-A α2β2γ1 oocyte @ 30-fold Ki for the input molecule. Input: C[C@@H]1N=C(c2c(F)cccc2F)c2c(cnc(C(F)(F)F)c2Cl)-n2nc(C(=O)NCC3(O)CC3)nc21 [Example 22]
2.72

Ok, now C[C@@H]1N=C(c2c(F)cccc2F)c2c(cnc(C(F)(F)F)c2Cl)-n2nc(NC(=O)C3COC3)nc21 [Example 12]
2.43

Ok, now C[C@@H]1N=C(c2c(F)cccc2F)c2c(cnc(C(F)(F)F)c2Cl)-n2cc(C(=O)NCCO)nc21 [Example 19]
2.70

Ok, now C[C@@H]1N=C(c2c(F)cccc2F)c2c(cnc(C(F)(F)F)c2Cl)-n2c1nc1c2CCC1 [Example 20]
2.08

Ok, now C[C@@H]1N=C(c2c(F)cccc2F)c2c(cnc(C(F)(F)F)c2Cl)-n2nc(C(=O)N3CC(F)C3)nc21 [Example 7]
1.85

Ok, now C[C@@H]1N=C(c2c(F)cccc2F)c2c(cnc(C(F)(F)F)c2Cl)-n2nc(C(=O)NC[C@@H](C)O)nc21 [Example 16]
2.66

Ok, now C[C@@H]1N=C(c2c(F)cccc2F)c2c(cnc(C(F)(F)F)c2Cl)-n2nc(C(=O)NCC(C)(C)O)nc21 [Example 21]
2.75

Ok, now Cc1nnc2n1-c1cnc(Cl)c(Cl)c1C(c1c(F)cccc1F)=N[C@H]2C [Example 1]
1.55

Ok, now C[C@@H]1N=C(c2c(F)cccc2F)c2c(cnc(C(F)(F)F)c2Cl)-n2nc(C(=O)N3CCS(=O)(=O)CC3)nc21 [Example 11]
2.14

Ok, now C[C@@H]1N=C(c2c(F)cccc2F)c2c(cnc(C(F)(F)F)c2Cl)-n2nc(C(=O)NCCO)nc21 [Example 15]
2.46

Ok, now C[C@H](O)CNC(=O)c1nc2n(n1)-c1cnc(C(F)(F)F)c(Cl)c1C(c1c(F)cccc1F)=N[C@H]2C [Example 14]
2.58

Ok, now C[C@@H]1N=C(c2c(F)cccc2F)c2c(cnc(C(F)(F)F)c2Cl)-n2nc(C(=O)N3CCC3)nc21 [Example 6]
1.91

---

- tested target: human GABAA α2β2γ1 receptor (Homo sapiens (Human), UniProt P47869+Q8N1C3)
- method: Radioligand binding assay, competition for [3H]RO7239181, γ1-containing GABAA subtypes
- cond: Table 1; Ki α1β3γ2 (nM)/Ki α2β2γ1 (nM)
- Description: The affinity of compounds at GABAA γ1 subunit-containing receptors was measured by competition for [^3H]RO7239181 (67.3 Ci/mmol; Roche) binding to membranes from HEK293F cells (ThermoFisher R79007) expressing human (transiently transfected) receptors of composition α5β2γ1, α2β2γ1, α1β2γ1. […]
Rule: γ2/γ1 Selectivity Ratio under 200 gives label 0, otherwise label 1.

[
  {
    "compound": "COC1CN(C(=O)c2nc3n(n2)-c2cnc(C(F)(F)F)c(Cl)c2C(c2c(F)cccc2F)=N[C@H]3C)C1 [Example 9]",
    "category label": "label 0"
  },
  {
    "compound": "C[C@@H]1N=C(c2c(F)cccc2F)c2c(cnc(C(F)(F)F)c2Cl)-n2nc(C(=O)N3CC(O)C3)nc21 [Example 8]",
    "category label": "label 1"
  },
  {
    "compound": "Cc1cn2c(n1)[C@H](C)N=C(c1c(F)cccc1F)c1c-2cnc(C(F)(F)F)c1Cl [Example 18]",
    "category label": "label 0"
  },
  {
    "compound": "Cc1ncc2c(c1Cl)C(c1c(F)cccc1F)=N[C@@H](C)c1nnc(C)n1-2 [Example 3]",
    "category label": "label 0"
  },
  {
    "compound": "Cc1nnc2n1-c1cnc(Cl)c(Cl)c1C(c1c(F)cccc1F)=N[C@H]2C [Example 1]",
    "category label": "label 0"
  }
]

Textbook exercise: given the entry C[C@@H]1N=C(c2c(F)cccc2F)c2c(cnc(C(F)(F)F)c2Cl)-n2nc(C(=O)N3CC(C)(O)C3)nc21 [Example 10] , state whether its γ2/γ1 Selectivity Ratio is greater than or equal to 200.
label 1

Ok, now Cc1nnc2n1-c1cnc(C(F)(F)F)c(Cl)c1C(c1c(F)cccc1F)=N[C@H]2C [Example 4]
label 0

Ok, now C[C@H](O)CNC(=O)c1nc2n(n1)-c1cnc(C(F)(F)F)c(Cl)c1C(c1c(F)cccc1F)=N[C@H]2C [Example 14]
label 0
